Biological target: NLRP3 (Homo sapiens)
Construct: purchased ICE YM2306T-H06MHS
Sequence (Q96P20 whole entry): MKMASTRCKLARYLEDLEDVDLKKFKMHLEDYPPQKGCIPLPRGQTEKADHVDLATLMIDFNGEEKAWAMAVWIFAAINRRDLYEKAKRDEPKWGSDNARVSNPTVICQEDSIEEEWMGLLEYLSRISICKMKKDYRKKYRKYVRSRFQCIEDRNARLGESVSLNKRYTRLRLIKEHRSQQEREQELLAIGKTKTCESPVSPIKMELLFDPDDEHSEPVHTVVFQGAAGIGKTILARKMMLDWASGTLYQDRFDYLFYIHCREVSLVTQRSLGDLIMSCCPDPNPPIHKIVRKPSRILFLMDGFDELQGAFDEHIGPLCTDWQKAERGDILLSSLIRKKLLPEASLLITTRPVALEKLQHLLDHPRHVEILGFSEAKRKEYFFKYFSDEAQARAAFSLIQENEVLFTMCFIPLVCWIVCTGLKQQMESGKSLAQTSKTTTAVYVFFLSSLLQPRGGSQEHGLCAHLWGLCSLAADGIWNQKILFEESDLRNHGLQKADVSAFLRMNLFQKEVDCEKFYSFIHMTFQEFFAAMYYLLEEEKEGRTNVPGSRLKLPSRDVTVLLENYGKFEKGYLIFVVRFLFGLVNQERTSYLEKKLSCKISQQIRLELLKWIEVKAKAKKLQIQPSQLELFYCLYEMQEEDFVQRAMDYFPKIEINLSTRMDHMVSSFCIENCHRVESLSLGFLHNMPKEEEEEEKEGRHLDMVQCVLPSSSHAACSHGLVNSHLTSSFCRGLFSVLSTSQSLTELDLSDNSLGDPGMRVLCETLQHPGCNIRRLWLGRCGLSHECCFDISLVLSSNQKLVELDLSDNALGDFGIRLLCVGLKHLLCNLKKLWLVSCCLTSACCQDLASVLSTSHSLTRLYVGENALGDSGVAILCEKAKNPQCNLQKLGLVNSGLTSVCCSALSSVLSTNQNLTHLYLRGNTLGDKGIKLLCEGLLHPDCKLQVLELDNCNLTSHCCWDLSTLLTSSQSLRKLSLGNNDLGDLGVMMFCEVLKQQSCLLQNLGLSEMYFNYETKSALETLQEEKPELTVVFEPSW
Assay: NLRP3 Enzymatic Activity ADP-Glo Assay (Example B-4)
Format: biochemical
Conditions: hydrolysis of ATP by NLRP3; NLRP3 15 nM, ATP 1 μM; read-out: NLRP3_ADP-Glo_IC50 (nM), Example B-4
Here, each record is paired with measured IC50 data.

Answered cases to consult:
molecule | measured-on | IC50
Cc1cc(C(F)(F)F)c(F)c(O)c1C1=NN=C(N[C@H]2C[C@@](C)(O)C2)SC1 | NLRP3 (Homo sapiens) | 10 to 100 nM
Cc1cc(C(F)(F)F)cc(O)c1C1=NN=C(N[C@@H]2CCCN(C)C2)SC1 | NLRP3 (Homo sapiens) | 10 to 100 nM

// query I'd like to know its IC50. The molecule in question is "Cc1cc2c(c(O)c1C1=NN=C(NC34CCC(O)(CC3)C4)SC1)CCO2"
// result 100 to 1000 nM

// query I'd like to know its IC50. The molecule in question is "C[C@]1(O)C[C@@H](NC2=NN=C(c3c(O)cc(C(F)(F)F)cc3F)CS2)C1"
// result 100 to 1000 nM
